- Measured Target: NADPH oxidase 5 (Homo sapiens) (UniProt Q96PH1)
- Sequence (Q96PH1 whole entry, looked up): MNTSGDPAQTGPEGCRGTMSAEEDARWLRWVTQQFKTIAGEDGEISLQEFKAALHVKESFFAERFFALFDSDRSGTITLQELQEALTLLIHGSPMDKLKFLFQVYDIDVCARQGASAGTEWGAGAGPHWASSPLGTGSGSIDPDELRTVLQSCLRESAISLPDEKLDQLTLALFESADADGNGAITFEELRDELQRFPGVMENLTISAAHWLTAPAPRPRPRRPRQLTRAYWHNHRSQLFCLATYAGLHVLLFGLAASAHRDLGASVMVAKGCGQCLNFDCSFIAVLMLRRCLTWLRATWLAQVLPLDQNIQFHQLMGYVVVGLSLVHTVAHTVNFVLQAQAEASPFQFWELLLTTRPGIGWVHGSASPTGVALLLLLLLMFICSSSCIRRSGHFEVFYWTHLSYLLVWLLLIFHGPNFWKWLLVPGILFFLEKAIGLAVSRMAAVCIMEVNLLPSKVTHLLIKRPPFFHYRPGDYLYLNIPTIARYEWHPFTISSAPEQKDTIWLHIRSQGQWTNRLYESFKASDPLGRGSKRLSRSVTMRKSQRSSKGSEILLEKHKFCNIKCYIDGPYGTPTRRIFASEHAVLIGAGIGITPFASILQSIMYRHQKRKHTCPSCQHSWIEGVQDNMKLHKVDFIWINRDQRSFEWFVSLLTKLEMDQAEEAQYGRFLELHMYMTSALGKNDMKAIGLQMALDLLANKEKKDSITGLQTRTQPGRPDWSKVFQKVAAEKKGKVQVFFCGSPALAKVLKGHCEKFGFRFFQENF
- Test: compounds shifting NOX5 Amplex Red fluorescence – cell-based, HEK293-NOX5, NOX inhibitor project, primary screen (AID 1161)
- Protocol Conditions: HEK293-NOX5, ionomycin, 45 min, higher = more signal
z-score vs -0.06: at or above is yes, below is no.

- Compound: "O=C1C2C=CC(C(O)c3c(F)cccc3Cl)N(Nc3ccccc3F)C2C(=O)N1c1ccccc1 (stereo unspecified)"
  Assigned Class: "no"
- Compound: "COCC(=C=CC[C@H](O)c1ccccc1OCCO)CCO"
  Assigned Class: "no"
- Compound: "C=C(C(=O)CC[C@H](OC(C)=O)c1ccccc1OCCO)C(C)C"
  Assigned Class: "no"
- Compound: "O=C1OCCC=C[C@H]2OC34C=CCN(CCN5CCOCC5)C(=O)[C@H]3N(CCCCCO)C(=O)[C@@H]4C12 (stereo partly specified)"
  Assigned Class: "yes"
- Compound: "NCCCCCNC(=O)[C@H]1C[C@H]2C(=O)N3CCC[C@H]3C(=O)N2[C@H]1c1ccc(O)cc1"
  Assigned Class: "no"
- Compound: "COCCOC(=O)N1C(=O)[C@@]2(c3ccccc31)[C@H](C(=O)N1CCCCCCC1)[C@H]1C(=O)O[C@H](c3ccccc3)[C@H](c3ccccc3)N1[C@@H]2c1ccc(OCCO)cc1"
  Assigned Class: "yes"
- Compound: "COC(=O)c1c(CC[C@@H](CO)NC(=O)N[C@@H](Cc2ccccc2)Cn2cc(-c3ccccn3)nn2)oc(C(=O)N2CCOCC2)c1C(=O)OC"
  Assigned Class: "no"
- Compound: "NCCCCCCNC(=O)[C@H]1C[C@H]2C(=O)N[C@@H](Cc3ccccc3)C(=O)N2[C@H]1c1cccc(OCCO)c1"
  Assigned Class: "yes"
- Compound: "OCCCC1=CC(C2CC2)N(Cc2cccc(OC(F)(F)F)c2)CC1 (stereo unspecified)"
  Assigned Class: "no"
- Compound: "COc1ccc([C@H]2C[C@H]3C(I)=C[C@@H]2C(=O)[C@]32CO2)cc1"
  Assigned Class: "no"
- Compound: "CCCC(=O)N(CCc1c[nH]c2ccccc12)[C@@H]1CC(C(=O)NCCO)=C[C@H](Oc2c(I)cc(CO)cc2OC)[C@H]1O"
  Assigned Class: "yes"
- Compound: "O=C1NC(=O)C2C1C=CC(C(O)c1ccc(I)cc1)N2Nc1ccc(Cl)cc1Cl (stereo unspecified)"
  Assigned Class: "no"
- Compound: "NC(=O)[C@@H]1[C@H]2C(=O)O[C@H](c3ccccc3)[C@H](c3ccccc3)N2[C@H](c2ccc(OCCO)cc2)[C@@]12C(=O)Nc1ccc(C#CC3=CCCCC3)cc12"
  Assigned Class: "yes"
- Compound: "COc1ccc(NN2C(C(O)c3ccc(N(C)C)cc3)C=CC3C(=O)N(C4CCCCC4)C(=O)C32)cc1 (stereo unspecified)"
  Assigned Class: "no"
- Compound: "C=CCNC(=O)[C@H]1[C@@H]2C(=O)O[C@@H](c3ccccc3)[C@@H](c3ccccc3)N2[C@@H](c2ccc(OCCO)cc2)[C@]12C(=O)Nc1ccc(C#CCC(C(=O)OC)C(=O)OC)cc12"
  Assigned Class: "yes"
- Compound: "CC(=O)Nc1cc(Br)ccc1C(=O)NCc1ccccc1"
  Assigned Class: "no"
- Compound: "C#CCNCc1ccccc1"
  Assigned Class: "yes"
- Compound: "COCCOC(=O)N1C(=O)[C@@]2(c3cc(C#CC4(O)CCCCCC4)ccc31)[C@H](C(=O)Nc1nc3ccccc3s1)[C@H]1C(=O)O[C@H](c3ccccc3)[C@H](c3ccccc3)N1[C@@H]2c1ccccc1OCCO"
  Assigned Class: "yes"
- Compound: "COCCOC(=O)N1C(=O)[C@@]2(c3ccccc31)[C@H](c1ccc(OCCO)cc1)N1[C@H](c3ccccc3)[C@H](c3ccccc3)OC(=O)[C@H]1[C@@H]2C(=O)N1CCc2cc(OC)c(OC)cc2C1"
  Assigned Class: "no"
- Compound: "O=C(CS)NCCCCCNC(=O)[C@@H]1C[C@@H]2C(=O)NCC(=O)N2[C@@H]1c1ccc(O)cc1"
  Assigned Class: "yes"
- Compound: "CCCCC(=C=CC[C@H](O)c1cccc(OCCO)c1)C[C@H](O)c1ccccn1"
  Assigned Class: "no"
- Compound: "NCCCCCNC(=O)[C@H]1C[C@H]2C(=O)N[C@@H](Cc3ccccc3)C(=O)N2[C@H]1c1cccc(OCCO)c1"
  Assigned Class: "yes"
- Compound: "Cc1ccc([C@H]2C(C(=O)O)=CCN2S(=O)(=O)c2ccc(C)cc2)cc1"
  Assigned Class: "no"
- Compound: "COCCOC(=O)N1C(=O)[C@@]2(c3cc(C#CCCO)ccc31)[C@H](c1ccc(OCCO)cc1)N1[C@H](c3ccccc3)[C@H](c3ccccc3)OC(=O)[C@H]1[C@@H]2C(N)=O"
  Assigned Class: "yes"
- Compound: "CCCNC(=O)[C@@H]1c2ccccc2C(=O)N(Cc2ccccc2OC)[C@H]1c1ccc(CO)cc1"
  Assigned Class: "yes"
- Compound: "CC1CC/C=C\\[C@H]2OC34C=CCN(Cc5ccccc5)C(=O)[C@H]3N(C(C)CO)C(=O)[C@@H]4C2C(=O)O1 (stereo partly specified)"
  Assigned Class: "yes"
- Compound: "O=C(NC1CC1)[C@@H]1c2ccccc2C(=O)N(C2Cc3ccccc3C2)[C@H]1c1ccc(CO)cc1"
  Assigned Class: "no"
- Compound: "C=CC[C@]1(C(=O)NCc2ccccc2)N=C(c2ccc(OCCCO)cc2)O[C@H]1c1ccccc1CN=[N+]=[N-]"
  Assigned Class: "no"
- Compound: "C=C(CCCC)/C(=C/C[C@@H](OC(C)=O)c1cccc(OCCO)c1)c1cnc2ccccc2c1"
  Assigned Class: "no"
- Compound: "COC(=O)[C@@]1(Cc2ccccc2)[C@H]2c3cc(C(=O)N(C)C)n(Cc4ccc(OC)c(OC)c4)c3C[C@H]2CN1C(=O)c1ccccc1"
  Assigned Class: "yes"
